# measuredOn: Inosine-5'-monophosphate dehydrogenase (Cryptosporidium parvum)
# Sequence (Q8T6T2 whole entry): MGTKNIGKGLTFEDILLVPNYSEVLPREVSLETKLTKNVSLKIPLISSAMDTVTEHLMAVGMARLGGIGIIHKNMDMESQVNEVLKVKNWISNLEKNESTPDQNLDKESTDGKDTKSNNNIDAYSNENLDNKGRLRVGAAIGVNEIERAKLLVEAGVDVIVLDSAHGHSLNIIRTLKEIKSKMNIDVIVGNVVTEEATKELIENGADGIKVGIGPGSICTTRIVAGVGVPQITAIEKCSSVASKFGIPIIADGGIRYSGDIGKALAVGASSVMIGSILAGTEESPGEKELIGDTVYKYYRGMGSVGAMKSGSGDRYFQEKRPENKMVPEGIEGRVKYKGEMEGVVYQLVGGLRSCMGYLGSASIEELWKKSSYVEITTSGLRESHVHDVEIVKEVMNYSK
# assayDetails: Non-competitive inhibition of Cryptosporidium IMPDH preincubated for 10 mins before NAD+ substrate addition by spectrophotometry
For each entry below, report its Ki value.
Quick reminder: number only, in nM, skip the unit.

What does the record list as Ki for C/C(=N\O)c1cccc(C(C)(C)NC(=O)Nc2ccc(Cl)c(C(N)=O)c2)c1 ?
6

Param item: C/C(=N\O)c1cccc(C(C)(C)NC(=O)Nc2ccc(Br)cc2)c1
15

Param item: Cn1nc(CC(=O)Nc2ccc3oc4c(c3c2)CCCC4)c2ccccc2c1=O
49

Param item: O=C(Cn1c(-c2ccccn2)nc2ccccc21)Nc1ccc2ccccc2c1
14

Data credit: ChEMBL document CHEMBL3351409
